# Tested on: SARS-CoV-2 pseudotyped lentivirus (Omicron)
# method: microbe, parasite or virus in culture
# Type: cell-based
# particulars: read-out: IC50 pseudoviral neutralization, Omicron
property: IC50

molecule	assay.target	obs.value
C#CCN1CCC(CCNc2ccnc3ccccc23)CC1	SARS-CoV-2 pseudotyped lentivirus (Omicron)	2700 nM

----------
# Tested on: SARS-CoV-2 Delta live virus
# method: microbe, parasite or virus in culture
# Format: cell-based
# particulars: read-out: IC50 live virus neutralization, Delta
pIC50: −log10 of the molar value.
property: pIC50

molecule	obs.value
C#CCN1CCC(CCNc2ccnc3ccccc23)CC1	> 4.30

----------
# Tested on: SARS-CoV-2 pseudotyped lentivirus
# method: microbe, parasite or virus in culture
# Type: cell-based
# particulars: Severe acute respiratory syndrome coronavirus 2, HEK293T/17, read-out: IC50, neutralization of SARS-CoV-2 pseudotyped lentivirus
Each entry below lists one item and its recorded IC50 value.
property: IC50 (µM)

molecule	limit.operator	obs.value
Cn1nnnc1C1(c2cccc(Cl)c2)CCC1	>	50
C#CCN1CCC(CCNc2ccnc3ccccc23)CC1	=	2.8
NC(=O)c1ccc(N)cc1OC1CCN(CC(F)(F)F)CC1	>	50
CS(=O)(=O)c1ccccc1Oc1ccc(-c2ccc(S(N)(=O)=O)cc2)cc1	=	18.7
